Exercise: state measured Inhibition 1 for each of the molecules provided.
- TARGET OR SYSTEM: cloned human or rodent CNS receptors, channels, and transporters (PDSP panel) (Homo sapiens, UniProt P08908)
- Construct: expressed in transfected cells
- Sequence (P08908 whole entry): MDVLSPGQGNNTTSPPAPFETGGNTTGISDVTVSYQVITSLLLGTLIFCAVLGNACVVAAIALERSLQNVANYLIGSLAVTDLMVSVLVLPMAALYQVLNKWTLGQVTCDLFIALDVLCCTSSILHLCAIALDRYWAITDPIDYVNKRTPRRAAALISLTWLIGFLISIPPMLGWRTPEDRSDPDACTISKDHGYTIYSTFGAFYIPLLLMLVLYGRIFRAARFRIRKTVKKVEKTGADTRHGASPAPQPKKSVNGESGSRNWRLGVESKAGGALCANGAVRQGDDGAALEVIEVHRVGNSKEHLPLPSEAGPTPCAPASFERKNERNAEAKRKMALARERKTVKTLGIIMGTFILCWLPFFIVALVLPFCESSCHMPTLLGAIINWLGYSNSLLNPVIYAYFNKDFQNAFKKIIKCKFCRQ
- EXPERIMENT NOTES: PDSP GPCR panel primary binding assays at 10 μM
- CONDITION SUMMARY: 5-HT1A; primary assay, replicate 1
For clarity, give the value followed by its unit.

# input Read off the recorded Inhibition 1 for CCC(=O)N1CCC(NC(=O)Nc2ccc(OC(F)(F)F)cc2)CC1 [UNC10302681A, TPPU]
# output 9.39%

# input Name the recorded Inhibition 1 of the molecule listed here: CNc1nc(C)nc(N[C@H]2CCC[C@@H](C(=O)NCc3ccc(C#N)cc3C(F)(F)F)C2)n1 [UNC10302679A, GSK2256294A]
# output 11.98%

# input Tell me Inhibition 1 reported for CC(=O)N1CCC(NC(=O)NC23CC4CC(CC(C4)C2)C3)CC1 [UNC10302683A, AR9281]
# output 5.09%

# input Hello, please tell me recorded Inhibition 1 for this one: O=C(NC1CC1)C(=O)C(Cc1ccccc1)NC(=O)[C@H]1CCC(=O)N1Cc1ccccc1 (stereo partly shown) [UNC10302676A, ABT-957 (Alicapistat)]
# output 12.84%

====

- EXPERIMENT NOTES: Snapshot IV PK in CD1 mice
- Format: in vivo
- CONDITION SUMMARY: CD1, mouse, plasma, iv, 3 mg/kg
Field: log10 clearance. Provide a value for each of the compounds that follow.
Hi team, quick reminder: these entries are log10 of clearance (mL/min/kg).

# input Give reported log10 clearance value for CNc1nc(C)nc(N[C@H]2CCC[C@@H](C(=O)NCc3ccc(C#N)cc3C(F)(F)F)C2)n1 [UNC10302679A, GSK2256294A]
# output 1.42

# input Output log10 clearance of O=c1oc2ccccc2cc1-c1cn2cc(Cc3ccc(F)cc3)sc2n1 [UNC10302680A, iMDK]
# output 1.58

# input Provide measured log10 clearance value, entry: CC(=O)N1CCC(NC(=O)NC23CC4CC(CC(C4)C2)C3)CC1 [UNC10302683A, AR9281]
# output 1.97

# input Answer with the recorded log10 clearance for the compound listed here: CCC(=O)N1CCC(NC(=O)Nc2ccc(OC(F)(F)F)cc2)CC1 [UNC10302681A, TPPU]
# output 0.11

# input Give the measured log10 clearance for Cl.NC(=O)c1cnc(N[C@@H]2CCCC[C@@H]2N)nc1Nc1cccc(-n2nccn2)c1 [UNC10302682A, P505-15 (PRT06207 HCl)]
# output 1.70

====

Could you please report measured Inhibition 3 for the items listed next?
- TARGET OR SYSTEM: cloned human or rodent CNS receptors, channels, and transporters (PDSP panel) (Homo sapiens, UniProt P41145)
- Construct: expressed in transfected cells
- Sequence (P41145 whole entry): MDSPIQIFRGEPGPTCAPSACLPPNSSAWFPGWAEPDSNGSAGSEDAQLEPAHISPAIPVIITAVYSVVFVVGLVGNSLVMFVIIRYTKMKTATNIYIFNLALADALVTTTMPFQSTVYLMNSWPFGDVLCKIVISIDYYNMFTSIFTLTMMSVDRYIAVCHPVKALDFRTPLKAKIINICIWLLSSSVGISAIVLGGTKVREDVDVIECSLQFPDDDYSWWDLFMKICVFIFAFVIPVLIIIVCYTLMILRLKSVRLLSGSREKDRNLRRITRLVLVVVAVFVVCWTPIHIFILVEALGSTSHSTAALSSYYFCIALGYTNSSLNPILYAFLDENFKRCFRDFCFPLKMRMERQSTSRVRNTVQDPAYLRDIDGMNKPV
- EXPERIMENT NOTES: PDSP GPCR panel primary binding assays at 10 μM
- CONDITION SUMMARY: KOR; primary assay, replicate 3
Express it in %; write the number only.

# input Please give measured Inhibition 3 of the following entry: CCC(=O)N1CCC(NC(=O)Nc2ccc(OC(F)(F)F)cc2)CC1 [UNC10302681A, TPPU]
# output -11.75

# input Look up Inhibition 3 of O=C(NC1CC1)C(=O)C(Cc1ccccc1)NC(=O)[C@H]1CCC(=O)N1Cc1ccccc1 (stereo partly shown) [UNC10302676A, ABT-957 (Alicapistat)] and report it.
# output -22.5

# input Answer with the recorded Inhibition 3 of CC(=O)N1CCC(NC(=O)NC23CC4CC(CC(C4)C2)C3)CC1 [UNC10302683A, AR9281] only.
# output -23.06

# input Look up Inhibition 3 of CNc1nc(C)nc(N[C@H]2CCC[C@@H](C(=O)NCc3ccc(C#N)cc3C(F)(F)F)C2)n1 [UNC10302679A, GSK2256294A] and report it.
# output 0.34

====

- Test system: cloned human or rodent CNS receptors, channels, and transporters (PDSP panel)
- EXPERIMENT NOTES: PDSP GPCR panel primary binding assays at 10 μM
- CONDITION SUMMARY: Receptor Sigma 1; primary assay, 10 μM; mean of Inhibition 1-4
For each entry below, report its Mean % value.
Express it in %; write the number only.

# input Return Mean % for the following compound: c1cn2cc(-c3ccc4cn[nH]c4c3)nc(Nc3ccc(N4CCOCC4)cc3)c2n1 [UNC10302678A, Entospletinib (GS-9973)]
# output 11.7

# input Consider the compound Cl.NC(=O)c1cnc(N[C@@H]2CCCC[C@@H]2N)nc1Nc1cccc(-n2nccn2)c1 [UNC10302682A, P505-15 (PRT06207 HCl)] and give its recorded Mean %.
# output 23.12

# input Give Mean % for the following compound: CCCCNc1ncc2c(-c3ccc(CN4CCN(C)CC4)cc3)cn([C@H]3CC[C@H](O)CC3)c2n1 [UNC2025C, UNC2025]
# output 37.11

# input Answer with reported Mean % of O=c1oc2ccccc2cc1-c1cn2cc(Cc3ccc(F)cc3)sc2n1 [UNC10302680A, iMDK]
# output 1.7

====

Consider the following compounds; for each one, report its Inhibition 3.
- System: cloned human or rodent CNS receptors, channels, and transporters (PDSP panel)
- EXPERIMENT NOTES: PDSP GPCR panel primary binding assays at 10 μM
- CONDITION SUMMARY: Alpha2A; primary assay, replicate 3
Numbers only here, please. The scale is %.

# input Recall and state the measured Inhibition 3 for CNc1nc(C)nc(N[C@H]2CCC[C@@H](C(=O)NCc3ccc(C#N)cc3C(F)(F)F)C2)n1 [UNC10302679A, GSK2256294A] .
# output -7.24

# input Consider the compound CC(=O)N1CCC(NC(=O)NC23CC4CC(CC(C4)C2)C3)CC1 [UNC10302683A, AR9281] . State its measured Inhibition 3.
# output -3.6

# input Please list Inhibition 3 recorded for the compound CCC(=O)N1CCC(NC(=O)Nc2ccc(OC(F)(F)F)cc2)CC1 [UNC10302681A, TPPU]
# output -13.09

# input Look up and state reported Inhibition 3 for O=C(NC1CC1)C(=O)C(Cc1ccccc1)NC(=O)[C@H]1CCC(=O)N1Cc1ccccc1 (stereo partly shown) [UNC10302676A, ABT-957 (Alicapistat)]
# output -2.65

====

- TARGET OR SYSTEM: cloned human or rodent CNS receptors, channels, and transporters (PDSP panel) (Homo sapiens)
- Construct: expressed in transfected cells
- EXPERIMENT NOTES: PDSP GPCR panel primary binding assays at 10 μM
- CONDITION SUMMARY: Receptor 5-HT2C; primary assay, 10 μM; mean of Inhibition 1-4
RESULT TYPE: Mean % (%)
Enter your answer as a number in %; do not include the unit.

# input Look up and report measured Mean % for this entry: Cl.NC(=O)c1cnc(N[C@@H]2CCCC[C@@H]2N)nc1Nc1cccc(-n2nccn2)c1 [UNC10302682A, P505-15 (PRT06207 HCl)]
# output 63.81

# input Please list Mean % recorded for the compound c1cn2cc(-c3ccc4cn[nH]c4c3)nc(Nc3ccc(N4CCOCC4)cc3)c2n1 [UNC10302678A, Entospletinib (GS-9973)]
# output -11.66

# input Provide measured Mean % value, entry: O=c1oc2ccccc2cc1-c1cn2cc(Cc3ccc(F)cc3)sc2n1 [UNC10302680A, iMDK]
# output -2.7

# input // fetch Mean % given entry CCCCNc1ncc2c(-c3ccc(CN4CCN(C)CC4)cc3)cn([C@H]3CC[C@H](O)CC3)c2n1 [UNC2025C, UNC2025]
# output 33.5

====

- TARGET OR SYSTEM: cloned human or rodent CNS receptors, channels, and transporters (PDSP panel) (Rattus norvegicus, UniProt Q5U3Y7)
- Construct: expressed in transfected cells
- Sequence (Q5U3Y7 whole entry): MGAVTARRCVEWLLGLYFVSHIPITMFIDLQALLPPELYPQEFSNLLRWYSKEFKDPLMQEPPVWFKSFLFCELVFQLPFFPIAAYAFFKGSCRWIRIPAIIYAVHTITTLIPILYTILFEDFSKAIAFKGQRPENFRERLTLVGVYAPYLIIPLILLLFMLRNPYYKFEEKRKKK
- EXPERIMENT NOTES: PDSP GPCR panel primary binding assays at 10 μM
- CONDITION SUMMARY: Sigma 2; primary assay, replicate 4
For each entry below, report its Inhibition 4 value.
// note: answer is a bare numeric in %

# input Fill in reported Inhibition 4 for this entry: CCC(=O)N1CCC(NC(=O)Nc2ccc(OC(F)(F)F)cc2)CC1 [UNC10302681A, TPPU]
# output 28.85

# input Give the value of Inhibition 4 reported for the following: O=C(NC1CC1)C(=O)C(Cc1ccccc1)NC(=O)[C@H]1CCC(=O)N1Cc1ccccc1 (stereo partly shown) [UNC10302676A, ABT-957 (Alicapistat)]
# output -4.38

# input Specify reported Inhibition 4 for the molecule shown: CC(=O)N1CCC(NC(=O)NC23CC4CC(CC(C4)C2)C3)CC1 [UNC10302683A, AR9281]
# output 1.34

# input Assign Inhibition 4 to the following record: CNc1nc(C)nc(N[C@H]2CCC[C@@H](C(=O)NCc3ccc(C#N)cc3C(F)(F)F)C2)n1 [UNC10302679A, GSK2256294A]
# output -16.36
